B1: Chromodomain-helicase-DNA-binding protein 5, residues 338 to 390; numbered along this chain, Q8TDI0 (parent)
chain: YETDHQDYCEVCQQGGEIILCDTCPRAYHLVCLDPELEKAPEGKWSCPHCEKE

# Variants of: B1
# EXPERIMENT: abundance fitness (aPCA) (normalised: wild type 0, dead -1); higher = more abundant; growth selection in yeast, the domain comes from the species named
# ASSAY CONTEXT: Homo sapiens
MEASURED METRIC: abundance fitness
Just the number, please, no unit attached.

>>> obs_value("K44C")
-0.051

Quickly give me recorded abundance fitness for D34E 0.266

Indicate the recorded abundance fitness value for this variant: E51S -0.365

Hello, please tell me recorded abundance fitness for this one: E42V 0.068

# return recorded abundance fitness for input E51V -0.209
